Quick reference for Papp among some compounds
test.method.notes: Permeability Coefficient in hexadecane membranes model
Format: ADME, cell membranes
test.settings: not told
Reply with just the number (in ×10⁻⁶ cm/s).

compound	value.kind	value.reported
CC(C)NCC(O)COc1cccc2ccccc12 (stereo not drawn)	Papp	58

Tell me the measured Papp of CC(C)NCC(O)COc1cccc2[nH]ccc12 (stereo not drawn) , please.
0.73

Okay, and CN1CC(=O)NC1=N ?
0.12

----------
Quick reference for Papp among some compounds
test.method.notes: Permeability Coefficient in 2/4/A1 cell model
Type: ADME, cell-based, Homo sapiens
Reply with just the number (in ×10⁻⁶ cm/s).

compound	Papp (×10⁻⁶ cm/s)
CC(C)(C)NCC(O)COc1cccc2c1C[C@H](O)[C@H](O)C2 (some centres undefined) [NADOLOL]	14
O=P(O)(O)C(Cl)(Cl)P(=O)(O)O [CLODRONIC ACID]	4.5
OC[C@H]1O[C@H](OC[C@H]2O[C@H](O[C@]3(CO)O[C@H](CO)[C@@H](O)[C@@H]3O)[C@H](O)[C@@H](O)[C@@H]2O)[C@H](O)[C@@H](O)[C@H]1O [RAFFINOSE]	5.9
Cc1cc(=O)n(-c2ccccc2)n1C [ANTIPYRINE]	250
O=C(O)c1cc(/N=N/c2ccc(O)c(C(=O)O)c2)ccc1O [OLSALAZINE]	4.5
Cc1ccccc1N1C(=O)c2cc(S(N)(=O)=O)c(Cl)cc2NC1C (centres undefined) [METOLAZONE]	14

Tell me the measured Papp of CC(C)NCC(O)COc1cccc2ccccc12 (centres undefined) [PROPRANOLOL] , please.
240

Okay, and CN(C)C(=N)N=C(N)N [METFORMIN] ?
20

Okay, and CC(C)NCC(O)COc1cccc2[nH]ccc12 (centres undefined) [PINDOLOL] ?
67

----------
test.method.notes: Permeability Coefficient in 2/4/A1 cell model
Assay type: ADME, cell-based, Homo sapiens
Where a SMILES comes first, the peptide text is derived from it.
Quick reference for Papp among some compounds
Reply with just the number (in ×10⁻⁶ cm/s).

Solved entries (count: 5):
compound	value.kind	value.reported
C[C@H]1O[C@@H](O[C@H]2[C@@H](O)C[C@H](O[C@H]3[C@@H](O)C[C@H](O[C@H]4CC[C@@]5(C)[C@H](CC[C@@H]6[C@@H]5C[C@@H](O)[C@]5(C)[C@@H](C7=CC(=O)OC7)CC[C@]65O)C4)O[C@@H]3C)O[C@@H]2C)C[C@H](O)[C@@H]1O	Papp	6.7
OC[C@@H](O)[C@@H](O)[C@H](O)[C@H](O)CO	Papp	11
CCN1CCCC1CNC(=O)c1cc(S(N)(=O)=O)ccc1OC (centres undefined) [SULPIRIDE]	Papp	11
CN1CC(=O)NC1=N	Papp	21
O=C1c2c(O)ccc(O)c2C(=O)c2c(NCCNCCO)ccc(NCCNCCO)c21	Papp	7.3

Tell me the measured Papp of CN(CC(=O)O)C(=O)CN [GLYCYLSARCOSINE] (HELM PEPTIDE1{G.[Sar]}$$$$V2.0) , please.
11

Okay, and CN/C(=N/CCSCc1nc[nH]c1C)NC#N ?
39

Okay, and C=CCc1ccccc1OCC(O)CNC(C)C (centres undefined) ?
290

Okay, and COCCc1ccc(OCC(O)CNC(C)C)cc1 (centres undefined) ?
190

----------
test.method.notes: Permeability Coefficient in hexadecane membranes model
Assay type: ADME, cell membranes
test.settings: not told
value.kind: Papp (×10⁻⁶ cm/s)
Reply with just the number (in ×10⁻⁶ cm/s).

Solved entries (count: 2):
compound	unit.info	Papp
O=P(O)(O)C(Cl)(Cl)P(=O)(O)O [CLODRONIC ACID]	×10⁻⁶ cm/s	12
CN(Cc1cnc2nc(N)nc(N)c2n1)c1ccc(C(=O)NC(CCC(=O)O)C(=O)O)cc1 (single isomer, unassigned) [METHOTREXATE]	×10⁻⁶ cm/s	0.02

Now turn to the next compound.
Tell me the measured Papp of OC[C@H]1O[C@H](OC[C@H]2O[C@H](O[C@]3(CO)O[C@H](CO)[C@@H](O)[C@@H]3O)[C@H](O)[C@@H](O)[C@@H]2O)[C@H](O)[C@@H](O)[C@H]1O [RAFFINOSE] , please.
0.051

----------
test.method.notes: Permeability Coefficient in Caco-2 cell culture model
Type: ADME, cell-based
test.settings: human
Where a SMILES comes first, the peptide text is derived from it.
Short version: Papp at least 1 ×10⁻⁶ cm/s is YES, less is NO.

compound	discrete.label
CC(C)NCC(O)COc1cccc2ccccc12 (stereo not drawn)	YES
CN1CC(=O)NC1=N	YES
CN(CC(=O)O)C(=O)CN [GLYCYLSARCOSINE] (HELM PEPTIDE1{G.[Sar]}$$$$V2.0)	NO
C[C@H]1O[C@@H](O[C@H]2[C@@H](O)C[C@H](O[C@H]3[C@@H](O)C[C@H](O[C@H]4CC[C@@]5(C)[C@H](CC[C@@H]6[C@@H]5C[C@@H](O)[C@]5(C)[C@@H](C7=CC(=O)OC7)CC[C@]65O)C4)O[C@@H]3C)O[C@@H]2C)C[C@H](O)[C@@H]1O	YES
Cc1ccccc1N1C(=O)c2cc(S(N)(=O)=O)c(Cl)cc2NC1C (stereo not drawn)	YES
Nc1nc(=O)c2ncn([C@@H]3C[C@H](CO)[C@H]3CO)c2[nH]1	NO
CN(C)C(=N)N=C(N)N	NO

Entry CC(C)[C@H](N)C(=O)OCCOCn1cnc2c(=O)[nH]c(N)nc21 : is its Papp no less than 1 ×10⁻⁶ cm/s?
YES

----------
Quick reference for Papp among some compounds
test.method.notes: Permeability Coefficient in 2/4/A1 cell model
Assay type: ADME, cell-based, Homo sapiens
Reply with just the number (in ×10⁻⁶ cm/s).

Solved entries (count: 6):
>>> print(df.to_string())
                                   compound  value_reported
0  O=C(O)c1cc(/N=N/c2ccc(S(=O)(=O)Nc3ccccn3)cc2)ccc1O             9.6
1              Nc1nc2c(ncn2COCCO)c(=O)[nH]1             8.2
2  CN(Cc1cnc2nc(N)nc(N)c2n1)c1ccc(C(=O)NC(CCC(=O)O)C(=O)O)cc1 (single isomer, unassigned) [METHOTREXATE]             5.2
3  OC[C@H]1O[C@@H](O[C@@H]2[C@@H](CO)O[C@](O)(CO)[C@H]2O)[C@H](O)[C@@H](O)[C@H]1O             8.9
4  CC(C)[C@H](N)C(=O)OCCOCn1cnc2c(=O)[nH]c(N)nc21              35
5                           O=C(O)P(=O)(O)O             9.5

Tell me the measured Papp of Nc1nc(=O)c2ncn([C@@H]3C[C@H](CO)[C@H]3CO)c2[nH]1 , please.
14

Okay, and O=c1[nH]cnc2c1ncn2[C@H]1CC[C@@H](CO)O1 ?
14

Okay, and CC(C)(C)NCC(O)c1cc(O)cc(O)c1 (centres undefined) ?
41

----------
test.method.notes: Permeability Coefficient in hexadecane membranes model
Type: ADME, cell membranes
test.settings: not told
value.kind: Papp (×10⁻⁶ cm/s)
Reply with just the number (in ×10⁻⁶ cm/s).

>>> print(df.to_string())
                       compound   unit_info  value_reported
0  CN/C(=N/CCSCc1nc[nH]c1C)NC#N  ×10⁻⁶ cm/s           0.085
1               O=C(O)P(=O)(O)O  ×10⁻⁶ cm/s            0.36

Now turn to the next compound.
Tell me the measured Papp of C=CCc1ccccc1OCC(O)CNC(C)C (stereo not drawn) , please.
160

----------
Quick reference for Papp among some molecules
test.method.notes: Permeability Coefficient in Caco-2 cell culture model
Type: ADME, cell-based
test.settings: human
Reply with just the number (in ×10⁻⁶ cm/s).

Solved entries (count: 9):
>>> print(df.to_string())
                                   molecule  value_kind  value_reported
0              Nc1nc2c(ncn2COCCO)c(=O)[nH]1        Papp            0.38
1  O=C1c2c(O)ccc(O)c2C(=O)c2c(NCCNCCO)ccc(NCCNCCO)c21        Papp             2.3
2  CC(C)(C)NCC(O)c1cc(O)cc(O)c1 (stereo not given)        Papp            0.23
3    O=c1[nH]cnc2c1ncn2[C@H]1CC[C@@H](CO)O1        Papp            0.25
4  O=C(O)c1cc(/N=N/c2ccc(O)c(C(=O)O)c2)ccc1O        Papp            0.05
5  CC(C)(C)NCC(O)COc1cccc2c1C[C@H](O)[C@H](O)C2 (stereo not given in full)        Papp            0.28
6                           O=C(O)P(=O)(O)O        Papp           0.043
7  CN(Cc1cnc2nc(N)nc(N)c2n1)c1ccc(C(=O)NC(CCC(=O)O)C(=O)O)cc1 (single isomer, unassigned) [METHOTREXATE]        Papp            0.03
8               O=P(O)(O)C(Cl)(Cl)P(=O)(O)O        Papp           0.059

Now turn to the next molecule.
Tell me the measured Papp of CN/C(=N/CCSCc1nc[nH]c1C)NC#N , please.
0.67
